Hey, just so you know, these numbers are from patent US8937088B2.

The reader will find reported Cell Death (%) at Tested Concentration values listed item by item below.
System: Hep3B (human hepatoma cell line)
run.description: Cell death detection, trypan blue exclusion assay, Hep3B
Assay type: cell-based
settings: 5-day treatment, 3.0 uM
measurement.label: Cell Death (%) at Tested Concentration

1) CNC(=O)c1cc(Oc2ccc(NC(=O)Nc3ccc(Cl)c(S(F)(F)(F)(F)F)c3)c(F)c2)ccn1; 67.2
2) CNC(=O)c1cc(Oc2ccc(NC(=O)Nc3cccc(S(F)(F)(F)(F)F)c3)c(F)c2)ccn1; 92.7
3) CNC(=O)c1cc(Oc2ccc(NC(=O)Nc3ccc(S(F)(F)(F)(F)F)cc3)c(F)c2)ccn1; 7.6
4) CNC(=O)c1cc(Oc2ccc(NC(=O)Nc3cccc(S(F)(F)(F)(F)F)c3)cc2)ccn1; 22.3
5) CNC(=O)c1cc(Oc2ccc(NC(=O)Nc3ccc(Cl)c(C(F)(F)F)c3)cc2)ccn1 [Sorafenib, reference compound]; 12.5
6) CNC(=O)c1cc(Oc2ccc(NC(=O)Nc3cc(S(F)(F)(F)(F)F)ccc3Cl)c(F)c2)ccn1; 38.4
7) CNC(=O)c1cc(Oc2ccc(NC(=O)Nc3ccc(Cl)c(S(F)(F)(F)(F)F)c3)cc2)ccn1; 25.6

* * *

The reader will find reported cytotoxicity at 2.5 µM values listed item by item below.
Test system: LNCaP (human prostate adenocarcinoma cell line)
run.description: Cell death detection, trypan blue exclusion assay, LNCaP
Format: cell-based
settings: 168 h, 7-day treatment, 2.5 uM, read-out: Cell Death (%) at Tested Concentration
measurement.label: cytotoxicity at 2.5 µM

1) CNC(=O)c1cc(Oc2ccc(NC(=O)Nc3ccc(Cl)c(S(F)(F)(F)(F)F)c3)c(F)c2)ccn1; 2.7%
2) CNC(=O)c1cc(Oc2ccc(NC(=O)Nc3ccc(Cl)c(C(F)(F)F)c3)cc2)ccn1 [Sorafenib, reference compound]; 1.6%
3) CNC(=O)c1cc(Oc2ccc(NC(=O)Nc3cc(S(F)(F)(F)(F)F)ccc3Cl)cc2)ccn1; 1.9%
4) CNC(=O)c1cc(Oc2ccc(NC(=O)Nc3ccc(S(F)(F)(F)(F)F)cc3)c(F)c2)ccn1; 2.8%
5) CNC(=O)c1cc(Oc2ccc(NC(=O)Nc3cccc(S(F)(F)(F)(F)F)c3)cc2)ccn1; 2.8%
6) CNC(=O)c1cc(Oc2ccc(NC(=O)Nc3cc(S(F)(F)(F)(F)F)ccc3Cl)c(F)c2)ccn1; 1.9%
7) CNC(=O)c1cc(Oc2ccc(NC(=O)Nc3cccc(S(F)(F)(F)(F)F)c3)c(F)c2)ccn1; 2.7%
8) CNC(=O)c1cc(Oc2ccc(NC(=O)Nc3ccc(Cl)c(S(F)(F)(F)(F)F)c3)cc2)ccn1; 2.8%

* * *

Tested on: HUH7 (human hepatoma cell line)
run.description: Cell death detection, trypan blue exclusion assay, HUH7, in combination with AZD-6244
Format: cell-based
settings: HUH7, 6-day treatment, compound 0.5 μM, AZD-6244 0.5 μM
measurement.label: Cell Death (%) in combination with AZD-6244

1. CNC(=O)c1cc(Oc2ccc(NC(=O)Nc3cc(S(F)(F)(F)(F)F)ccc3Cl)c(F)c2)ccn1; 99%
2. CNC(=O)c1cc(Oc2ccc(NC(=O)Nc3ccc(Cl)c(S(F)(F)(F)(F)F)c3)c(F)c2)ccn1; 99%
3. CNC(=O)c1cc(Oc2ccc(NC(=O)Nc3ccc(S(F)(F)(F)(F)F)cc3)c(F)c2)ccn1; 94.6%

* * *

Tested on: LNCaP (human prostate adenocarcinoma cell line)
run.description: Cell death detection, trypan blue exclusion assay, LNCaP
Assay type: cell-based
settings: 72 h, 3-day treatment, 2.5 uM, read-out: Cell Death (%) at Tested Concentration
measurement.label: cytotoxicity at 2.5 µM (%)

1) CNC(=O)c1cc(Oc2ccc(NC(=O)Nc3cc(S(F)(F)(F)(F)F)ccc3Cl)cc2)ccn1 [Example 5]; 1.5
2) CNC(=O)c1cc(Oc2ccc(NC(=O)Nc3ccc(Cl)c(C(F)(F)F)c3)cc2)ccn1 [Sorafenib, reference compound]; 1.7
3) CNC(=O)c1cc(Oc2ccc(NC(=O)Nc3cc(S(F)(F)(F)(F)F)ccc3Cl)c(F)c2)ccn1 [Example 6]; 1.3
4) CNC(=O)c1cc(Oc2ccc(NC(=O)Nc3ccc(Cl)c(S(F)(F)(F)(F)F)c3)cc2)ccn1 [Example 3]; 1.9
5) CNC(=O)c1cc(Oc2ccc(NC(=O)Nc3cccc(S(F)(F)(F)(F)F)c3)cc2)ccn1 [Example 1]; 1.5
6) CNC(=O)c1cc(Oc2ccc(NC(=O)Nc3ccc(Cl)c(S(F)(F)(F)(F)F)c3)c(F)c2)ccn1 [Example 4]; 1.4
7) CNC(=O)c1cc(Oc2ccc(NC(=O)Nc3ccc(S(F)(F)(F)(F)F)cc3)c(F)c2)ccn1 [Example 10]; 1.9
8) CNC(=O)c1cc(Oc2ccc(NC(=O)Nc3cccc(S(F)(F)(F)(F)F)c3)c(F)c2)ccn1 [Example 2]; 1.8

* * *

Tested on: HepG2 (human Hepatocellular carcinoma cell line)
run.description: Cell death detection, trypan blue exclusion assay, HepG2
Format: cell-based
settings: HepG2, 5-day treatment, 0.25 uM
Description: Biological Test 2. Cell Death Detection Using Trypan Blue Exclusion Assay. After drug treatment, cells were harvested by trypsinization with trypsin/EDTA for 10 min at 37° C. As some apoptotic cells detached from the culture substratum into the medium, these cells were also collected by centrifugation of the medium at 1,200 rpm for 5 min. […] After Trypan blue stain was done, cells were counted by using a light microscope and a hemocytometer. Blue dye-incorporating cells were scored as being dead. […]
measurement.label: Cell Death (%) at Tested Concentration

1) CNC(=O)c1cc(Oc2ccc(NC(=O)Nc3cccc(S(F)(F)(F)(F)F)c3)cc2)ccn1; 2.6
2) CNC(=O)c1cc(Oc2ccc(NC(=O)Nc3ccc(Cl)c(S(F)(F)(F)(F)F)c3)c(F)c2)ccn1; 1.9
3) CNC(=O)c1cc(Oc2ccc(NC(=O)Nc3ccc(Cl)c(C(F)(F)F)c3)cc2)ccn1 [Sorafenib, reference compound]; 2.2
4) CNC(=O)c1cc(Oc2ccc(NC(=O)Nc3ccc(Cl)c(S(F)(F)(F)(F)F)c3)cc2)ccn1; 2.7
5) CNC(=O)c1cc(Oc2ccc(NC(=O)Nc3cc(S(F)(F)(F)(F)F)ccc3Cl)c(F)c2)ccn1; 2.6
6) CNC(=O)c1cc(Oc2ccc(NC(=O)Nc3cccc(S(F)(F)(F)(F)F)c3)c(F)c2)ccn1; 2.2
7) CNC(=O)c1cc(Oc2ccc(NC(=O)Nc3ccc(S(F)(F)(F)(F)F)cc3)c(F)c2)ccn1; 2.7

* * *

The reader will find reported cytotoxicity at 7.5 µM values listed item by item below.
Test system: LNCaP (human prostate adenocarcinoma cell line)
run.description: Cell death detection, trypan blue exclusion assay, LNCaP
Format: cell-based
settings: 72 h, 3-day treatment, 7.5 uM, read-out: Cell Death (%) at Tested Concentration
measurement.label: cytotoxicity at 7.5 µM (%)

1) CNC(=O)c1cc(Oc2ccc(NC(=O)Nc3ccc(Cl)c(C(F)(F)F)c3)cc2)ccn1 [Sorafenib, reference compound]; 2.4
2) CNC(=O)c1cc(Oc2ccc(NC(=O)Nc3ccc(Cl)c(S(F)(F)(F)(F)F)c3)c(F)c2)ccn1; 46.8
3) CNC(=O)c1cc(Oc2ccc(NC(=O)Nc3ccc(S(F)(F)(F)(F)F)cc3)c(F)c2)ccn1; 11.3
4) CNC(=O)c1cc(Oc2ccc(NC(=O)Nc3cccc(S(F)(F)(F)(F)F)c3)cc2)ccn1; 7.3
5) CNC(=O)c1cc(Oc2ccc(NC(=O)Nc3cc(S(F)(F)(F)(F)F)ccc3Cl)cc2)ccn1; 2.1
6) CNC(=O)c1cc(Oc2ccc(NC(=O)Nc3ccc(Cl)c(S(F)(F)(F)(F)F)c3)cc2)ccn1; 13.4
7) CNC(=O)c1cc(Oc2ccc(NC(=O)Nc3cccc(S(F)(F)(F)(F)F)c3)c(F)c2)ccn1; 4.2
8) CNC(=O)c1cc(Oc2ccc(NC(=O)Nc3cc(S(F)(F)(F)(F)F)ccc3Cl)c(F)c2)ccn1; 3.6

* * *

System: HepG2 (human Hepatocellular carcinoma cell line)
run.description: Cell death detection, trypan blue exclusion assay, HepG2
Format: cell-based
settings: HepG2, 5-day treatment, 3.0 uM
The reader will find reported Cell Death (%) at Tested Concentration values listed item by item below.
measurement.label: Cell Death (%) at Tested Concentration

1) CNC(=O)c1cc(Oc2ccc(NC(=O)Nc3ccc(S(F)(F)(F)(F)F)cc3)c(F)c2)ccn1; 4.2
2) CNC(=O)c1cc(Oc2ccc(NC(=O)Nc3ccc(Cl)c(C(F)(F)F)c3)cc2)ccn1 [Sorafenib, reference compound]; 6.4
3) CNC(=O)c1cc(Oc2ccc(NC(=O)Nc3cc(S(F)(F)(F)(F)F)ccc3Cl)c(F)c2)ccn1; 90.7
4) CNC(=O)c1cc(Oc2ccc(NC(=O)Nc3ccc(Cl)c(S(F)(F)(F)(F)F)c3)c(F)c2)ccn1; 4.5

* * *

System: HepG2 (human Hepatocellular carcinoma cell line)
run.description: Cell death detection, trypan blue exclusion assay, HepG2
Format: cell-based
settings: HepG2, 5-day treatment, 5.0 uM
hey, just use T if measured Cell Death (%) at Tested Concentration is less than 10%, otherwise F

1) CNC(=O)c1cc(Oc2ccc(NC(=O)Nc3cccc(S(F)(F)(F)(F)F)c3)cc2)ccn1; F
2) CNC(=O)c1cc(Oc2ccc(NC(=O)Nc3cccc(S(F)(F)(F)(F)F)c3)c(F)c2)ccn1; F
3) CNC(=O)c1cc(Oc2ccc(NC(=O)Nc3ccc(Cl)c(S(F)(F)(F)(F)F)c3)cc2)ccn1; F
4) CNC(=O)c1cc(Oc2ccc(NC(=O)Nc3ccc(S(F)(F)(F)(F)F)cc3)c(F)c2)ccn1; T
5) CNC(=O)c1cc(Oc2ccc(NC(=O)Nc3ccc(Cl)c(S(F)(F)(F)(F)F)c3)c(F)c2)ccn1; F
6) CNC(=O)c1cc(Oc2ccc(NC(=O)Nc3cc(S(F)(F)(F)(F)F)ccc3Cl)c(F)c2)ccn1; F
7) CNC(=O)c1cc(Oc2ccc(NC(=O)Nc3ccc(Cl)c(C(F)(F)F)c3)cc2)ccn1 [Sorafenib, reference compound]; T
